tested-on: human recombinant farnesyl diphosphate synthase (Homo sapiens)
Sequence (P14324 67-419 limits assumed): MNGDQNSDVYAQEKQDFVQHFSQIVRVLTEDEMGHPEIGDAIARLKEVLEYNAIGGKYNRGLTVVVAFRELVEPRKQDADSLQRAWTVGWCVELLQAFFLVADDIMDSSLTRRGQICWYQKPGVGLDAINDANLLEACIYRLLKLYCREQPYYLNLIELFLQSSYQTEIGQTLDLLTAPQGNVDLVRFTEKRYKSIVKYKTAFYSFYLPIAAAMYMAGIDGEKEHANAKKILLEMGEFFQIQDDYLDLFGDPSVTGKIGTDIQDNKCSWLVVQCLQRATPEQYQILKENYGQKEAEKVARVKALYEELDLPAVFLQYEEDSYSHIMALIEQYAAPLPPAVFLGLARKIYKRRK
assay-method-text: biochemical
endpoint: IC50 (µM)

>>> observed_value("CC(O)(P(=O)(O)O)P(=O)(O)O [etidronate, 1-hydroxyethane-1,1-diphosphonic acid]")
80
